Entries and their activity at 10 µM values follow.
- Test system: m-IMCD3 cells
- Method Description: Inhibition of PGE2-stimulated in vitro cyst formation in m-IMCD3 cells
- Assay type: cell-based, mouse
- Condition Context: Mus musculus, mIMCD3, 144 h, 10 μM; mean cyst area, 100% for (DMSO + PGE2) and 0% for DMSO control; 6 days of culture; read-out: % Cyst area after incubation with 10 μM test compound
# number only, unit % dropped from output

Compound | Target Under Test | activity at 10 µM, %
O=C(COc1ccc(F)cc1)N1CCc2nc(N3C4CCC3CNC4)sc2C1 [Example 21] | m-IMCD3 cells | -1
O=C(C1CCCO1)N1CCc2nc(N3C4CCC3CNC4)sc2C1 (stereo not drawn) [Example 133] | m-IMCD3 cells | 19
CC(Oc1ccccc1)C(=O)N1CCc2nc(N3C4CCC3CNC4)sc2C1 (stereo not drawn) [Example 23] | m-IMCD3 cells | 0
CC[C@@H](C)C(=O)N1CCc2nc(N3C4CCC3CNC4)sc2C1 [Example 16] | m-IMCD3 cells | -2
CC(C)(C)CC(=O)N1CCc2nc(N3C4CCC3CNC4)sc2C1 [Example 10] | m-IMCD3 cells | -3

Then this compound:
Measured activity at 10 µM, COCC1(CC(=O)N2CCc3nc(N4C5CCC4CNC5)sc3C2)CCCC1 [Example 135] : -6

----------
- System: m-IMCD3 cells expressing PDE4 long forms
- Method Description: cAMP levels in PGE2-stimulated 3D m-IMCD3 cell culture media
- Type: cell-based
- Condition Context: Mus musculus, mIMCD3; 3 μM test compound; compared to 100% for (DMSO + PGE2); read-out: cAMP level (% of PGE2-stimulated)
We'd kindly ask you to apply these activity at 3 µM classes: low value: < 40%; medium value: ≥ 40% and < 50%; high value: ≥ 50%

Molecule | Class Assignment
O=C(CC1CCCC1)N1CCc2nc(C3CCNCC3)sc2C1 | high value
O=S(=O)(Cc1ccccc1)N1CCc2nc(N3C4CCC3CNC4)sc2C1 | low value
CCN1CC2CCC(C1)N2c1nc2c(s1)CN(C(=O)CC1CCCC1)CC2 | medium value

Problem: Into which category would you place `CCCN1CC2CCC(C1)N2c1nc2c(s1)CN(C(=O)COc1ccc(F)cc1)CC2` ?
Result: high value

Problem: Into which category would you place `CCN1CC2CCC(C1)N2c1nc2c(s1)CN(C(=O)COc1ccc(F)cc1)CC2` ?
Result: medium value

Problem: Into which category would you place `O=C(CC1CCCC1)N1CCn2nc(N3C4CCC3CNC4)cc2C1` ?
Result: medium value

Problem: Into which category would you place `CC(C)(C)CC(=O)N1CCc2sc(N3C4CCC3CNC4)nc2C1` ?
Result: low value

Problem: Into which category would you place `O=C(CC1CCCC1)N1CCc2nc(N3C[C@H]4C[C@@H]3CN4)sc2C1` ?
Result: low value

Problem: Into which category would you place `O=C([C@H](O)C1CCCC1)N1CCc2nc(N3C4CCC3CNC4)sc2C1` ?
Result: high value

Problem: Into which category would you place `CCN1CC2CCC(C1)N2c1nc2c(s1)CN(C(=O)NCc1ccc(F)cc1)CC2` ?
Result: medium value

Problem: Into which category would you place `O=S(=O)(Cc1ccc(F)cc1)N1CCc2nc(N3C4CCC3CNC4)sc2C1` ?
Result: low value

Problem: Into which category would you place `CC1(C)CN(C(=O)CC2CCC3(CC2)COC3)Cc2sc(N3C4CCC3CNC4)nc21` ?
Result: high value

Problem: Into which category would you place `O=C(NC1CCCC1)N1Cc2nc(N3C4CCC3CNC4)sc2C1` ?
Result: low value

Problem: Into which category would you place `CC(C)N1CC2CCC(C1)N2c1nc2c(s1)CN(C(=O)COc1ccc(F)cc1)CC2` ?
Result: medium value
